TARGET_ENTITY: CHO-CHOP luciferase reporter, luminescence, UPR apoptotic arm
ASSAY_NOTES: activators of PERK-eIF2a-CHOP apoptotic arm – cell-based, luciferase luminescence, set 2, counter-screen for UPR adaptive arm activator project, SAR follow-up (AID 588597)
Calls of active or inactive are those of the source.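 Rule for the calls: active = mean EC50 at or below 20 µM; inactive = the rest.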
Outcome codes: TRUE = active, FALSE = inactive

[
  {
    "STRUCTURE_AS_SMILES": "O=C(Nc1cccc(F)c1F)c1cc(-c2ccncc2)nc2ccccc12",
    "DISCRETE_LABEL": "FALSE"
  },
  {
    "STRUCTURE_AS_SMILES": "O=C(Nc1cccc(Br)c1)c1cc(-c2ccncc2)nc2ccccc12",
    "DISCRETE_LABEL": "FALSE"
  },
  {
    "STRUCTURE_AS_SMILES": "O=C(Nc1cccc(C(F)(F)F)c1)c1cc(-c2ccncc2)nc2ccccc12",
    "DISCRETE_LABEL": "FALSE"
  },
  {
    "STRUCTURE_AS_SMILES": "O=C(Nc1ccc(Br)c(C(F)(F)F)c1)c1cc(-c2ccncc2)nc2ccccc12",
    "DISCRETE_LABEL": "FALSE"
  },
  {
    "STRUCTURE_AS_SMILES": "O=C(Nc1ccc(F)cc1)c1cc(-c2ccncc2)nc2ccccc12",
    "DISCRETE_LABEL": "FALSE"
  },
  {
    "STRUCTURE_AS_SMILES": "Cc1cc(NC(=O)c2cc(-c3ccncc3)nc3ccccc23)ccc1Cl",
    "DISCRETE_LABEL": "FALSE"
  },
  {
    "STRUCTURE_AS_SMILES": "O=C(Nc1ccc(F)c(F)c1)c1cc(-c2ccncc2)nc2ccccc12",
    "DISCRETE_LABEL": "FALSE"
  },
  {
    "STRUCTURE_AS_SMILES": "O=C(Nc1cccc(F)c1Br)c1cc(-c2ccncc2)nc2ccccc12",
    "DISCRETE_LABEL": "FALSE"
  },
  {
    "STRUCTURE_AS_SMILES": "Cc1cc(NC(=O)c2cc(-c3ccccc3)nc3ccccc23)ccc1Br",
    "DISCRETE_LABEL": "FALSE"
  },
  {
    "STRUCTURE_AS_SMILES": "Cc1cc(NC(=O)c2cc(-c3ccncc3)nc3ccccc23)ccc1F",
    "DISCRETE_LABEL": "FALSE"
  },
  {
    "STRUCTURE_AS_SMILES": "O=C(Nc1ccc(Cl)cc1)c1cc(-c2ccncc2)nc2ccccc12",
    "DISCRETE_LABEL": "TRUE"
  },
  {
    "STRUCTURE_AS_SMILES": "O=C(Nc1cccc(Cl)c1)c1cc(-c2ccncc2)nc2ccccc12",
    "DISCRETE_LABEL": "FALSE"
  },
  {
    "STRUCTURE_AS_SMILES": "Cc1cccc(NC(=O)c2cc(-c3ccncc3)nc3ccccc23)c1",
    "DISCRETE_LABEL": "FALSE"
  },
  {
    "STRUCTURE_AS_SMILES": "O=C(Nc1ccccc1Br)c1cc(-c2ccncc2)nc2ccccc12",
    "DISCRETE_LABEL": "FALSE"
  },
  {
    "STRUCTURE_AS_SMILES": "Cc1ccc(NC(=O)c2cc(-c3ccncc3)nc3ccccc23)cc1",
    "DISCRETE_LABEL": "TRUE"
  },
  {
    "STRUCTURE_AS_SMILES": "Cc1cc(Br)cc(NC(=O)c2cc(-c3ccncc3)nc3ccccc23)c1",
    "DISCRETE_LABEL": "FALSE"
  },
  {
    "STRUCTURE_AS_SMILES": "O=C(Nc1cc(F)ccc1F)c1cc(-c2ccncc2)nc2ccccc12",
    "DISCRETE_LABEL": "FALSE"
  },
  {
    "STRUCTURE_AS_SMILES": "COc1cccc(NC(=O)c2cc(-c3ccncc3)nc3ccccc23)c1",
    "DISCRETE_LABEL": "FALSE"
  },
  {
    "STRUCTURE_AS_SMILES": "O=C(Nc1ccc(C(F)(F)F)cc1)c1cc(-c2ccncc2)nc2ccccc12",
    "DISCRETE_LABEL": "TRUE"
  },
  {
    "STRUCTURE_AS_SMILES": "O=C(Nc1cccc(F)c1)c1cc(-c2ccncc2)nc2ccccc12",
    "DISCRETE_LABEL": "FALSE"
  }
]
